target: eqBChE (Equus caballus, UniProt P81908); test: biochemical; format: biochemical
measurementName: eqBChE αKi (non-competitive inhibition constant)

Here are 4 compounds. What values of eqBChE αKi (non-competitive inhibition constant) were reported for them?
1. CC(C)(C)c1cc(CNCCCCCCCCNc2c3c(nc4ccccc24)CCCCC3)cc(C(C)(C)C)c1O [18d]
2. CC(C)(C)c1cc(C=NCCCCCCNc2c3c(nc4ccccc24)CCCCC3)cc(C(C)(C)C)c1O [15c]
3. CC(C)(C)c1cc(C=NCCCCCCCCNc2c3c(nc4ccccc24)CCCCC3)cc(C(C)(C)C)c1O [15d]
4. CC(C)(C)c1cc(CNCCCCCCNc2c3c(nc4ccccc24)CCCCC3)cc(C(C)(C)C)c1O [18c]

Response:
6.06 ± 0.41 nM
9.34 ± 0.62 nM
5.68 ± 0.06 nM
17.3 ± 0.2 nM

====

test system: Porcine liver CES; experiment: CES inhibition, spectrophotometric, 4-NPA substrate; format: biochemical
measurementName: CES % inhibition at 20 μM (%)
One number for each entry, in %.

Known CES % inhibition at 20 μM results, listed for orientation:
1. Cc1cc(C(C)(C)C)c(O)c(C(C)(C)C)c1 [BHT, butylated hydroxytoluene, reference compound]; 5.6
2. CC(C)(C)c1cc(C=NCCCCCCNc2c3c(nc4ccccc24)CCCC3)cc(C(C)(C)C)c1O [14c]; 25.1
3. CC(C)(C)c1cc(CNCCCCNc2c3c(nc4ccccc24)CCCC3)cc(C(C)(C)C)c1O [17b]; 15.8

From here, focus on the item given below.
Prompt: Fill in the blank: the reported CES % inhibition at 20 μM of CC(C)(C)c1cc(C=NCCCCNc2c3c(nc4ccccc24)CCC3)cc(C(C)(C)C)c1O [13b] is ____.
Response: 32.7

====

Exercise: state measured IC50 for each of the molecules provided.
biological target: equine serum BChE (Equus caballus, UniProt P81908); assay: biochemical; format: biochemical
Sequence (P81908 whole entry): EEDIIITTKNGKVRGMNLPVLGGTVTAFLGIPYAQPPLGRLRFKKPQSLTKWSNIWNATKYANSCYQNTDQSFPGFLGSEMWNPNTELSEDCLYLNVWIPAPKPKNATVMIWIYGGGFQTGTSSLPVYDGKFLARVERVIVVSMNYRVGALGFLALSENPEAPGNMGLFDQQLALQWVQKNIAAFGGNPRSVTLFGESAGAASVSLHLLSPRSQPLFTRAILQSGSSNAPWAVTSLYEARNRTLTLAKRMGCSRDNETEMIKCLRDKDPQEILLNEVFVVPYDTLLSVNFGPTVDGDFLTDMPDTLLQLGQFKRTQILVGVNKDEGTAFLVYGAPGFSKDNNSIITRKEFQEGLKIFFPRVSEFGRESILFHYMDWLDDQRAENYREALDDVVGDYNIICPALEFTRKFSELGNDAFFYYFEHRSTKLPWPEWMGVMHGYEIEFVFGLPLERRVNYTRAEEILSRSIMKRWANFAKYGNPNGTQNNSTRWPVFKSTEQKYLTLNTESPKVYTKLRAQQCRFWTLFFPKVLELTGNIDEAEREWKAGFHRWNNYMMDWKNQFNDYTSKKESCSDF
Numbers only, in nM.

1. CC(C)(C)c1cc(CNCCCCNc2c3c(nc4ccccc24)CCCC3)cc(C(C)(C)C)c1O [17b]; 111
2. CC(C)(C)c1cc(C=NCCCCNc2c3c(nc4ccccc24)CCC3)cc(C(C)(C)C)c1O [13b]; 351
3. CC(C)(C)c1cc(C=NCCCCCCNc2c3c(nc4ccccc24)CCCCC3)cc(C(C)(C)C)c1O [15c]; 10.6
4. CC(C)(C)c1cc(CNCCCCCCCCNc2c3c(nc4ccccc24)CCCCC3)cc(C(C)(C)C)c1O [18d]; 5.96

Here are 3 molecules. What values of IC50 were reported for them?
1. CC(C)(C)c1cc(C=NCCCCCCCCNc2c3c(nc4ccccc24)CCCC3)cc(C(C)(C)C)c1O [14d]
2. CC(C)(C)c1cc(C=NCCCCCCNc2c3c(nc4ccccc24)CCC3)cc(C(C)(C)C)c1O [13c]
3. CC(C)(C)c1cc(C=NCCCCNc2c3c(nc4ccccc24)CCCC3)cc(C(C)(C)C)c1O [14b]

Response:
1: 9.39; 2: 172; 3: 385

Here are 3 molecules. What values of IC50 were reported for them?
1. CC(C)(C)c1cc(CNCCCCNc2c3c(nc4ccccc24)CCCCC3)cc(C(C)(C)C)c1O [18b]
2. CC(C)(C)c1cc(CNCCCCCCNc2c3c(nc4ccccc24)CCCC3)cc(C(C)(C)C)c1O [17c]
3. CC(C)(C)c1cc(CNCCCCNc2c3c(nc4ccccc24)CCC3)cc(C(C)(C)C)c1O [16b]

Response:
1: 67.8; 2: 36.1; 3: 177

Here are 5 molecules. What values of IC50 were reported for them?
1. CC(C)(C)c1cc(C=NCCCCNc2c3c(nc4ccccc24)CCCCC3)cc(C(C)(C)C)c1O [15b]
2. CC(C)(C)c1cc(C=NCCCCCCCCNc2c3c(nc4ccccc24)CCCCC3)cc(C(C)(C)C)c1O [15d]
3. CC(C)(C)c1cc(CNCCNc2c3c(nc4ccccc24)CCCC3)cc(C(C)(C)C)c1O [17a]
4. CC(C)(C)c1cc(CNCCCCCCCCNc2c3c(nc4ccccc24)CCC3)cc(C(C)(C)C)c1O [16d]
5. CC(C)(C)c1cc(CNCCCCCCNc2c3c(nc4ccccc24)CCC3)cc(C(C)(C)C)c1O [16c]

Response:
1: 131; 2: 6.24; 3: 464; 4: 17; 5: 48.8

Here are 4 molecules. What values of IC50 were reported for them?
1. CC(C)(C)c1cc(C=NCCCCCCCCNc2c3c(nc4ccccc24)CCC3)cc(C(C)(C)C)c1O [13d]
2. CC(C)(C)c1cc(C=NCCCCCCNc2c3c(nc4ccccc24)CCCC3)cc(C(C)(C)C)c1O [14c]
3. CC(C)(C)c1cc(CNCCCCCCCCNc2c3c(nc4ccccc24)CCCC3)cc(C(C)(C)C)c1O [17d]
4. CC(C)(C)c1cc(CNCCCCCCNc2c3c(nc4ccccc24)CCCCC3)cc(C(C)(C)C)c1O [18c]

Response:
1: 41.7; 2: 55; 3: 7.56; 4: 14.9
